Entry source: PubChem BioAssay (NCI)

# Test system: OVCAR-8 ovarian
# method-notes: NCI-60 one-dose screen, 48 h (100 = growth as untreated, 0 = no growth, -100 = all killed)
# setup-conditions: 10 µM unless noted
The panel holds about 83,000 compounds, 20% with a hit somewhere; the sample as a whole holds those more often.
The following compounds are listed with their measured growth values.
Hi! Could you send only the number? It should be in %, unit omitted.

The examples below pair each entry with its known result.
- item-smiles: "C#CC(=O)/C=C/CCCCCCC#CC(=O)CCC(=O)C#CCCCCCC/C=C/C(=O)C#C"
  unit-spec: "%"
  growth: 8.53
- item-smiles: "COc1ccccc1S(=O)(=O)Nc1ccc2c3c(cc(-c4cnn(C5CC5)c4)nc13)C(=O)N2C"
  unit-spec: "%"
  growth: 70.1
- item-smiles: "CCCN1C(=O)CSC1=Nc1ccc2cc3ccc(N=C4SCC(=O)N4CCC)cc3nc2c1"
  unit-spec: "%"
  growth: 37.2

Note: attention shifts to another entry.
Challenge: Could you tell me which growth is on file for `O=C(Nc1ccc(Cl)c(Cl)c1)Nc1ccc(Cl)c([N+](=O)[O-])c1` ?
Response given: 10.9

* * *

# Test system: NCI-H522 lung
# method-notes: NCI-60 one-dose screen, 48 h
# setup-conditions: 10 µM unless noted
Compounds without any hit were thinned out: in the full panel of roughly 83,000, 20% have a hit. Calls of active or inactive are those of the source. How the source made its calls: active means growth percent below 10; inactive means the rest.
Choose one outcome from this list and give only that: t (active), f (inactive)

- item-smiles: "COc1ccc(C(=O)NC(=O)Nc2ccc3c(c2)NC(=O)/C3=C\\c2[nH]c(C)c(CCC(=O)O)c2C)c(F)c1"
  category: "f"

Challenge: Tell me the assay call for `O=C(Nc1ccc(-n2ccc3c(NC(=O)c4ccccc4)nccc32)cc1)Nc1ccc(Cl)c(Cl)c1` please.
Response given: t

Challenge: Tell me the assay call for `COc1cc2ncn3c(=O)c4c5c(sc4nc3c2cc1OC)CCCCC5` please.
Response given: f

Challenge: Tell me the assay call for `c1ccc(-c2nc3sc(C(c4ccccc4)c4ccccc4)nn3c2-c2ccccc2)cc1` please.
Response given: f

Challenge: Tell me the assay call for `O=C1CN(CCN2CC(=O)NC(=O)C2)CC(=O)N1` please.
Response given: f

Challenge: Tell me the assay call for `C=CC(=O)NC(=O)Nc1ccccc1Cl` please.
Response given: t

Challenge: Tell me the assay call for `CCCCn1c(-c2cccc(OC)c2)nc2cc(OC)c(OC)cc2c1=O` please.
Response given: f

Challenge: Tell me the assay call for `O=C(Nc1ccc(-n2cc(-c3ccncc3)c(-c3ccc(O)c(Cl)c3)n2)cc1)Nc1cccc(Cl)c1Cl` please.
Response given: f

* * *

# Tested on: MDA-MB-435 melanoma
# method-notes: NCI-60 one-dose screen, 48 h (100 = growth as untreated, 0 = no growth, -100 = all killed)
# setup-conditions: 10 µM unless noted
About 83,000 compounds went through this panel and 20% of them were active in at least one assay; those are over-represented in the sample as a whole.
The following compounds are listed with their measured growth values.
Hi! Could you send only the number? It should be in %, unit omitted.

- item-smiles: "c1nc(SC2=NCCN2)c2[nH]cnc2n1"
  growth / %: 24
- item-smiles: "O=C(Cn1c2ccccc2c2ccncc21)N/N=C/c1cc(O)c(O)c(O)c1"
  growth / %: 111
- item-smiles: "CCCCn1c(-c2cccc(OC)c2)nc2cc(OC)c(OC)cc2c1=O"
  growth / %: 115
- item-smiles: "O=C(Nc1ccc(-n2ccc3c(NC(=O)c4ccccc4)ncnc32)cc1)Nc1cccc(Cl)c1Cl"
  growth / %: -4.29
- item-smiles: "S=c1n(CNc2ccc(Cl)nn2)nc(-c2cc(Cl)cc(Cl)c2Cl)n1/N=C/c1ccc(Cl)cc1"
  growth / %: 89.3

Challenge: Could you tell me which growth is on file for `Oc1ccc(O)c(-[n+]2ccccc2)c1` ?
Response given: 109

Challenge: Could you tell me which growth is on file for `CC(C)(C)OC(=O)N1CC(Cn2cc(C(F)(F)F)c3c(Cl)ncnc32)C1` ?
Response given: -83.4

* * *

# Tested on: UACC-257 melanoma
# method-notes: NCI-60 one-dose screen, 48 h (100 = growth as untreated, 0 = no growth, -100 = all killed)
# setup-conditions: 10 µM unless noted
About 83,000 compounds went through this panel and 20% of them were active in at least one assay; those are over-represented in the sample as a whole.
value-type: growth (%)
Hi! Could you send only the number? It should be in %, unit omitted.

The examples below pair each entry with its known result.
- item-smiles: "CCOC(=O)c1cnc2c(OC)ccc(OC)c2c1Cl"
  target: "UACC-257 melanoma"
  experimental-result: 101
- item-smiles: "COc1ccccc1S(=O)(=O)Nc1ccc2c3c(cc(-c4ccoc4)nc13)C(=O)N2C"
  target: "UACC-257 melanoma"
  experimental-result: 58.7
- item-smiles: "O=C(CNc1cccnc1)Nc1ccc(C(=O)/C=C/c2ccc(Cl)cc2)cc1"
  target: "UACC-257 melanoma"
  experimental-result: 105
- item-smiles: "O=C1/C(=C/c2cccc3cnccc23)Cc2cc(F)ccc21"
  target: "UACC-257 melanoma"
  experimental-result: 113
- item-smiles: "O=C(NCCNc1nccc(-c2c(-c3cccc(O)c3)nc3sccn23)n1)c1ccccc1O"
  target: "UACC-257 melanoma"
  experimental-result: 14.8

Challenge: Request - read-out growth | tested on UACC-257 melanoma | compound `COc1ccc(/C=C/C(=O)c2ccc(-n3cc(CN4CCN(c5cc6c(cc5F)c(=O)c(C(=O)O)cn6C5CC5)CC4)nn3)cc2)cc1OC`
Response given: 62

Challenge: Request - read-out growth | tested on UACC-257 melanoma | compound `Cc1ncc(CO)c(C(=O)O)c1O`
Response given: 107

Challenge: Request - read-out growth | tested on UACC-257 melanoma | compound `Cl[C@@H]1CCO[C@H](c2cc3ccccc3c3ccccc23)C1`
Response given: 93.4

* * *

# Tested on: NCI-H522 lung
# method-notes: NCI-60 one-dose screen, 48 h
# setup-conditions: 10 µM unless noted
The panel holds about 83,000 compounds, 20% with a hit somewhere; the sample as a whole holds those more often. Calls of active or inactive are those of the source. Rule for the calls: active = growth percent below 10; inactive = the rest.
Choose one outcome from this list and give only that: T = active, F = inactive

Answered cases to consult:
- compound: "CC(=O)Nc1ccc(OC(=O)c2ccccc2O)cc1"
  category: "F"
- compound: "COc1ccc(-c2nn(-c3ccc(NC(=O)c4ccc(Cl)c(C(F)(F)F)c4)cc3)cc2-c2ccncc2)cc1Cl"
  category: "F"
- compound: "COc1cc(-c2nc(N)n(CC(=O)Nc3ccc(/C(C)=N\\O)cc3)n2)cc(OC)c1OC"
  category: "F"

Challenge: Tell me the assay call for `O=[N+]([O-])c1ccc(NS(=O)(=O)c2ccccc2)c2ccccc12` please.
Response given: F

Challenge: Tell me the assay call for `CN(C)CCNc1nc2ccccc2c2c(=O)c3ccccc3sc12` please.
Response given: F

* * *

The following molecules are listed with their measured growth values.
# Tested on: SF-539 CNS
# method-notes: NCI-60 one-dose screen, 48 h (100 = growth as untreated, 0 = no growth, -100 = all killed)
# setup-conditions: 10 µM unless noted
This is part of a sample that, as a whole, favours compounds with a hit. Of some 83,000 tested, about 20% had one in any assay.
Hi! Could you send only the number? It should be in %, unit omitted.

- molecule: "COc1cc(CN(c2ccc(Cl)cc2)C2OC(=O)c3ccccc32)cc(OC)c1OC (stereo unspecified)"
  growth [%]: 60.2
- molecule: "Cc1cc[n+](CCCC[n+]2ccc(C)cc2)cc1"
  growth [%]: 102
- molecule: "Cc1nccc2c3ccc(OCc4cn(Cc5ccc(Br)cc5)nn4)cc3n(CCCc3ccccc3)c12"
  growth [%]: 77
- molecule: "O=C(c1ccccc1)[C@H]1[C@@H]2CCCN2[C@]2(C(=O)Nc3ccc(F)cc32)[C@]12C(=O)Nc1ccccc12"
  growth [%]: 90.1
- molecule: "COc1ccc2c(-c3ccc(F)cc3)c(C#N)c(=NC(C)=O)oc2c1"
  growth [%]: 28.4
- molecule: "COC(=O)c1ccc2c(c1)Oc1ccc(Cl)cc1-c1cc(C)nn1-2"
  growth [%]: 68.4
- molecule: "O=C(CSc1nnc(-c2ccccc2)o1)Nc1ccc(C(=O)/C=C/c2ccccc2)cc1"
  growth [%]: 84.7
- molecule: "O=C(/C=C/c1ccco1)c1cccc(Nc2nc(Nc3ccccc3)nc(Nc3ccccc3)n2)c1"
  growth [%]: 94.4

Challenge: Could you tell me which growth is on file for `Cc1nc(-c2ccc(Cl)cc2)ccc1NC(=O)Nc1cccc(C(F)(F)F)c1` ?
Response given: 94.1

Challenge: Could you tell me which growth is on file for Nc1nc2ccc(CNc3ccc(C(=O)NC(CC(=O)O)C(=O)O)cc3)cc2c(=O)[nH]1 (stereo unspecified) ?
Response given: 38.4
